Assay: self-splicing fitness, log relative to wild type (ln ratio); higher = more splicing; Tetrahymena group I intron in knt gene, E. coli kanamycin selection, DiMSum; sequences stand for … in CUCUCU…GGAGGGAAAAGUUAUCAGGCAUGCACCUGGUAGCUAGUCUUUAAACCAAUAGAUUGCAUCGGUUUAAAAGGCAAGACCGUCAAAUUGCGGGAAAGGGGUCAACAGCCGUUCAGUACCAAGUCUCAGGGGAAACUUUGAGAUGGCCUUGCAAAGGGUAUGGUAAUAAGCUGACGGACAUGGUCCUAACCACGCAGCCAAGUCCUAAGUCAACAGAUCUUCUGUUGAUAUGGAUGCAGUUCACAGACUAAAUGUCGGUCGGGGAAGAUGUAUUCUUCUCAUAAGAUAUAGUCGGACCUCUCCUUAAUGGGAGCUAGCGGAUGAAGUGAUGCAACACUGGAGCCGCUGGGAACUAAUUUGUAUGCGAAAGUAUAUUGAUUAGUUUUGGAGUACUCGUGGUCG;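 note: selection with 25 µg/mL kanamycin versus none on LB agar overnight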
Conditions: 37 °C
Recorded self-splicing fitness (ln) determines the label; the label ranges are low: < -2; middle: ≥ -2 and < -1; high: ≥ -1

See these solved cases before continuing.
CAGAAGCAAUAUUACGGACU high
CGUUAGCAAUAUUACGUACU high
GCAAAGCAAUAUUACGCGGG low
GCGGAGCAAUAUUACGCGCG low
UUGGAGCAAUAUUACGCGAU high

Quick check: band for `UCGCAGCAAUAUUACGCGUU`
low

Exercise: read the entry `GACAAGCAAUAUUACGCGGU` and state which class it falls under.
low

Assign a bin to `ACAUAGCAAUAUUACGAGGU`
low

In plain terms, what class is `UACAAGCAAUAUUACGAUGA` ?
high

###

Assay: self-splicing fitness, log relative to wild type (ln ratio); higher = more splicing; Tetrahymena group I intron in knt gene, E. coli kanamycin selection, DiMSum; sequences stand for … in CUCUCU…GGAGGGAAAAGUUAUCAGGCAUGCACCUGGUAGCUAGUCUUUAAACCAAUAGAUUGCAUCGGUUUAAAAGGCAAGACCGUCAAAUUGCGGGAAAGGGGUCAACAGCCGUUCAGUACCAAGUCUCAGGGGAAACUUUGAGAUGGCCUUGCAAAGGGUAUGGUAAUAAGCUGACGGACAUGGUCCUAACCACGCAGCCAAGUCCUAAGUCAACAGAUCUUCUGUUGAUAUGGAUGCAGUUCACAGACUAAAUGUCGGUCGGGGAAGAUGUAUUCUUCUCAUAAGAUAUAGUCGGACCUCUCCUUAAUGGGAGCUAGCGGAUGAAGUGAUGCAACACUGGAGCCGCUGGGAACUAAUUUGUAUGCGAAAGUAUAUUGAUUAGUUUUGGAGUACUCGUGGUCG
Settings: 30 °C
List of self-splicing fitness (ln) values.
Give your answer as a number; write no unit.

Study these solved cases before continuing.
CUAGAGCAAUAUUACGCGCC -2.12
AUGUAGCAAUAUUACGCCAC -3.49
UCCAAGCAAUAUUACGUGCA -0.24
AGGGAGCAAUAUUACGCGCU -2.13
CAUGAGCAAUAUUACGGCGG -0.18
GAAAAGCAAUAUUACGCCCU 0.325

Which self-splicing fitness (ln) is reported for this sequence? `ACAAAGCAAUAUUACGCAUC`
-3.49

Fill in the blank: the reported self-splicing fitness (ln) of `UUAAAGCAAUAUUACGGUGC` is ____.
-4.36

###

Assay: self-splicing fitness, log relative to wild type (ln ratio); higher = more splicing; Tetrahymena group I intron in knt gene, E. coli kanamycin selection, DiMSum; sequences stand for … in CUCUCU…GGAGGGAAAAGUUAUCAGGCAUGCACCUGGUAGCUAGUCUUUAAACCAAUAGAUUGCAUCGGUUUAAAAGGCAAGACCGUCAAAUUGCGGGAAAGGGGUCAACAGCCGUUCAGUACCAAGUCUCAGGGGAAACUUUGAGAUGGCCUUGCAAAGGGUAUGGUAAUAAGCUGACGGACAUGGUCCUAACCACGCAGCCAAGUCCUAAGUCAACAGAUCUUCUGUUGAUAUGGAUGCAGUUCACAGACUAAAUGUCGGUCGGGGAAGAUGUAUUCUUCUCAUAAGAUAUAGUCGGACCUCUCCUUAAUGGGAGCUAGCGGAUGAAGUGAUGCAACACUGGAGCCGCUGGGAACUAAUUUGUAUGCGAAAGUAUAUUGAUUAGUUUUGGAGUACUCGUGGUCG
Conditions: 37 °C
Is self-splicing fitness (ln) at least -1? Then Fulfilled. If not, Not fulfilled.

Use these answered entries as a reference point.
UUUCAGCAAUAUUACGUCGU Not fulfilled
UGGCAGCAAUAUUACGAUCA Fulfilled
AGAGAGCAAUAUUACGUCCC Not fulfilled
GAGUAGCAAUAUUACGGUGU Not fulfilled
AGGCAGCAAUAUUACGACUA Fulfilled
GGAUAGCAAUAUUACGAAUC Not fulfilled
CCACAGCAAUAUUACGCGGU Not fulfilled
AUAUAGCAAUAUUACGCCGU Fulfilled

Textbook exercise: given the entry `ACCAAGCAAUAUUACGAGCC` , state whether its self-splicing fitness (ln) is greater than or equal to -1.
Not fulfilled

Exam item: decide whether the reported self-splicing fitness (ln) for `GGAGAGCAAUAUUACGGAUU` is at least -1.
Not fulfilled

Does `AGACAGCAAUAUUACGUAAC` have a reported self-splicing fitness (ln) of at least -1?
Not fulfilled

Threshold query (self-splicing fitness (ln) >= -1) on `CCUUAGCAAUAUUACGUACA`
Not fulfilled

self-splicing fitness (ln) >= -1 for `GUUUAGCAAUAUUACGGAUA` ?
Not fulfilled

Does self-splicing fitness (ln) meet or surpass -1 for `GACCAGCAAUAUUACGUCUA` ?
Fulfilled

Determine whether this sequence has self-splicing fitness (ln) no lower than -1: `ACCGAGCAAUAUUACGGAAC`
Not fulfilled

Could you tell me if the measured self-splicing fitness (ln) of `AGAGAGCAAUAUUACGGGUA` reaches -1 or more?
Not fulfilled

###

Experiment: self-splicing fitness, log relative to wild type (ln ratio); higher = more splicing; Tetrahymena group I intron in knt gene, E. coli kanamycin selection, DiMSum; sequences stand for … in CUCUCU…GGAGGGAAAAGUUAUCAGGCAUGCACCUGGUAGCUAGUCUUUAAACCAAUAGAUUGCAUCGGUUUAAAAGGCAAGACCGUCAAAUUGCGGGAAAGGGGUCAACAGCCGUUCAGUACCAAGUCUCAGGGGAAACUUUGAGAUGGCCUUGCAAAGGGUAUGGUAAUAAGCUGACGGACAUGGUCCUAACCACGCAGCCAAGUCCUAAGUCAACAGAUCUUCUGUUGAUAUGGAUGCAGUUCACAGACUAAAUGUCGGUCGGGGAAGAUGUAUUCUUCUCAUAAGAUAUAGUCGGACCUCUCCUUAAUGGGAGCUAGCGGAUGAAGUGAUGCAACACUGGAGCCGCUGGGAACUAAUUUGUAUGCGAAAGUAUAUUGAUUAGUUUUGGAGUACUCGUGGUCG
Details: 30 °C
# maps each entry to its self-splicing fitness (ln)
Reply with just the number.

Recorded results for 5 sequences are shown here.
CCCAAGCAAUAUUACGUGCU -2.08
AGGUAGCAAUAUUACGAGCU -0.0909
AAACAGCAAUAUUACGUUUC -3.8
GUUAAGCAAUAUUACGACGC -1.05
CGCAAGCAAUAUUACGCUGC -2.59

Bench note: what self-splicing fitness (ln) did `CUGUAGCAAUAUUACGUAGG` show?
-1.03

Fill in: self-splicing fitness (ln) of `CGCUAGCAAUAUUACGGUCC` is ___
-1.48

###

Assay: self-splicing fitness, log relative to wild type (ln ratio); higher = more splicing; Tetrahymena group I intron in knt gene, E. coli kanamycin selection, DiMSum; sequences stand for … in CUCUCU…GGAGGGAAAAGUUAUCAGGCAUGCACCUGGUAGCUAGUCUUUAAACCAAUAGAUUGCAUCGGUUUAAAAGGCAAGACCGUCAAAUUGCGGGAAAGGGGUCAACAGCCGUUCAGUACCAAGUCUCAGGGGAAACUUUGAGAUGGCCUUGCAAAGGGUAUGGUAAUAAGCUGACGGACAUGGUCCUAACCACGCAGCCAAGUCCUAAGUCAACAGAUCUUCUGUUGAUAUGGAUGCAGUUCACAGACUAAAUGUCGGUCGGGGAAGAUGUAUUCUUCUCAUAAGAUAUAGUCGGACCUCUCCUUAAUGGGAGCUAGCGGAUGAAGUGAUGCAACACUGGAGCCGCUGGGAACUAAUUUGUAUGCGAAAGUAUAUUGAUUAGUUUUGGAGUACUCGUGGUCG
Conditions: 30 °C
Parameter self-splicing fitness (ln): see the listing below.
# answer = number (no unit)

Check out these entries, answers already filled in.
CUAGAGCAAUAUUACGGCAU -3.75
AGGCAGCAAUAUUACGGUAU -1.79
AUGAAGCAAUAUUACGAUGG -3.18
AGGUAGCAAUAUUACGCCCC -1.92
CGCGAGCAAUAUUACGUAGU -3.92
AAGGAGCAAUAUUACGUUGC -4.58

Would you mind telling me what self-splicing fitness (ln) value was observed for `AUGGAGCAAUAUUACGUAAG` ?
-2.69

Give its self-splicing fitness (ln) value. Item: `CGAUAGCAAUAUUACGCCGC`
-3.37

Fill blank: measured self-splicing fitness (ln) of the sequence `CACGAGCAAUAUUACGUAUC` is ____.
-2.94

Item under review: `AUCUAGCAAUAUUACGCAUU` . Reported self-splicing fitness (ln)?
-1.48

Using the record for `UUGUAGCAAUAUUACGCGAG` , report its self-splicing fitness (ln).
-1.17
